- target_under_test: Human immunodeficiency virus type 1 reverse transcriptase (Human immunodeficiency virus 1, UniProt Q72547, L100I)
- test_description: Inhibitory effect on recombinant HIV- 1 reverse transcriptase which has a mutation Leu 100 to Ile 100 (clone 118)
endpoint_label: pIC50
Answers are plain numbers, as −log10 of the molar value.

Example entries and their recorded answers appear below.
{"smi": "S=C(NCCc1ccccn1)Nc1ccc(Br)cn1", "result": 6.15}
{"smi": "COc1ccc(C(C)=O)c(F)c1CCNC(=O)Nc1ccc(Cl)cn1", "result": 5.96}
{"smi": "CCc1cc(NCc2nc3c(Cl)ccc(Cl)c3o2)c(O)nc1C", "result": 5.80}
{"smi": "COc1ccc(OC)c(CCNC(=O)Nc2ccc(Cl)cn2)c1F", "result": 6.85}
{"smi": "CCOc1ccc(Cl)c([C@H]2C[C@H]2NC(=O)Nc2ccc(Cl)cn2)c1F", "result": 7.30}

State the recorded pIC50 for every item in the following list.
1. O=C(Nc1ccc(Cl)cn1)N[C@@H]1C[C@@H]1c1c(F)cccc1F
2. CCOc1ccc(OC)c(CCNC(=O)Nc2ccc(Cl)cn2)c1F

Response given:
1: 7.52; 2: 5.60
